Experiment: Cytotoxicity against mouse P815B cells […] by MTT assay
Type: functional
Conditions: read-out: LD50 (the source's name)
VALUE TYPE: CC50

1. Fc1cccc2[nH]cc(/C=C/c3cccnc3)c12 | > 80 µM
2. C(=C\c1c[nH]c2ccccc12)/c1ccncc1 | > 100 µM
3. COc1cccc(/C=C/c2c[nH]c3cc(F)ccc23)c1 | 40 µM
4. Clc1ccc2[nH]cc(/C=C/c3cccnc3)c2c1 | > 80 µM
5. Fc1ccc2c(/C=C/c3ccccc3)c[nH]c2c1 | 40 µM
6. COC(=O)/C=C/c1c[nH]c2cc(F)ccc12 | 40 µM
7. c1ccc2c(CCc3nnn[nH]3)c[nH]c2c1 | > 80 µM
8. Clc1cccc2c(/C=C/c3cccnc3)c[nH]c12 | > 200 µM
9. Cc1ccc2[nH]cc(/C=C/c3cccnc3)c2c1 | > 200 µM
10. c1ccc2c(Cc3nnn[nH]3)c[nH]c2c1 | > 80 µM
11. Brc1ccc2[nH]cc(/C=C/c3cccnc3)c2c1 | 20 µM
12. N#Cc1cccc(/C=C/c2c[nH]c3cc(F)ccc23)c1 | 20 µM
13. C(=C\c1c[nH]c2ccccc12)/c1nnn[nH]1 | > 80 µM
14. O=C(O)/C=C/c1c[nH]c2ccccc12 | > 400 µM
15. Brc1cccc2c(/C=C/c3cccnc3)c[nH]c12 | 20 µM
16. N#C/C=C/c1c[nH]c2ccccc12 | > 80 µM
17. c1cncc(CCCc2c[nH]c3ccccc23)c1 | > 200 µM
18. C(=C\c1c[nH]c2ccccc12)/c1ccccn1 | > 100 µM
19. C(=C\c1c[nH]cn1)/c1cccnc1 | > 80 µM
20. COc1cccc2c(/C=C/c3cccnc3)c[nH]c12 | > 200 µM
21. C(=C\c1c[nH]c2c1ccc1ccccc12)/c1cccnc1 | > 80 µM
22. O=C(O)/C=C/c1c[nH]c2cc(F)ccc12 | > 400 µM
23. O=[N+]([O-])c1cccc(/C=C/c2c[nH]c3cc(F)ccc23)c1 | 40 µM
24. C(=C\c1ccc2ccccc2c1)/c1cccnc1 | > 80 µM
25. C(=C\c1c[nH]c2ncccc12)/c1cccnc1 | > 80 µM
26. Clc1ccc2c(/C=C/c3cccnc3)c[nH]c2c1 | > 40 µM
27. Fc1ccc2c(/C=C/c3cccc(Cl)c3)c[nH]c2c1 | > 200 µM
28. N#C/C=C\c1c[nH]c2ccccc12 | > 80 µM
29. c1cncc(CCc2c[nH]c3ccccc23)c1 | > 80 µM
30. C(=C\c1c[nH]c2ccncc12)/c1cccnc1 | > 80 µM
31. COC(=O)c1cccc2[nH]cc(/C=C/c3cccnc3)c12 | > 200 µM
32. Brc1cccc2[nH]cc(/C=C/c3cccnc3)c12 | > 200 µM
33. CCOC(=O)/C(C#N)=C/c1c[nH]c2cc(F)ccc12 | > 80 µM
34. C(=C\c1n[nH]c2ccccc12)/c1cccnc1 | > 80 µM
35. N#C/C(=C\c1c[nH]c2cc(F)ccc12)c1ccccc1 | > 80 µM
36. C(=C\c1ccc2[nH]ccc2c1)/c1cccnc1 | > 80 µM
37. Fc1cccc2c(/C=C/c3cccnc3)c[nH]c12 | > 400 µM
38. Oc1ccc2c(/C=C/c3cccnc3)c[nH]c2c1 | > 200 µM
39. C(=C\c1c(-c2ccccc2)[nH]c2ccccc12)/c1cccnc1 | > 200 µM
40. O=[N+]([O-])c1cccc2[nH]cc(/C=C/c3cccnc3)c12 | > 200 µM
41. COC(=O)c1ccc2[nH]cc(/C=C/c3cccnc3)c2c1 | > 200 µM
42. N#CSCCc1c[nH]c2ccccc12 | > 80 µM
43. N#CCc1c[nH]c2ccccc12 | > 80 µM
44. Clc1cccc2[nH]cc(/C=C/c3cccnc3)c12 | 40 µM
45. Fc1ccc2c(/C=C/c3ccc4ccccc4c3)c[nH]c2c1 | > 200 µM
46. O=[N+]([O-])c1ccc2[nH]cc(/C=C/c3cccnc3)c2c1 | > 200 µM
47. Cc1[nH]c2ccccc2c1/C=C/c1cccnc1 | > 200 µM
48. Cc1ccc2c(/C=C/c3cccnc3)c[nH]c2c1 | > 200 µM
49. COC(=O)c1ccc2c(/C=C/c3cccnc3)c[nH]c2c1 | > 200 µM
50. N#CCCc1c[nH]c2ccccc12 | > 80 µM
51. Fc1ccc2c(/C=C/c3cccnc3)c[nH]c2c1 | > 80 µM
52. N#Cc1cccc2[nH]cc(/C=C/c3cccnc3)c12 | > 200 µM
53. COc1ccc2c(/C=C/c3cccnc3)c[nH]c2c1 | > 200 µM
